From: patent US8563742B2

experiment: in vivo; details: male, Sprague Dawley, rat, po, 5 mg/kg, Plasma - 2 hours (ng/mL)
The label t is reserved for concentration at 2 h strictly under 4000 ng/mL; f covers values equal to or above it.

Look over these answered cases.
INSERT INTO results (compound, group_label) VALUES
  ('CCc1ccc(CN(CCC(=O)[O-])c2nc(C3CCC(c4ccccc4)CC3)cs2)s1.[Na+] (stereo not drawn) [Example 39]', 'f'),
  ('CCc1ccc(CN(CCC(=O)[O-])c2nc(C3CCC(C)CC3)cs2)s1.[Na+] (stereo not drawn) [Example 5]', 't'),
  ('C[C@H]1CC[C@H](Oc2ccc(-c3csc(N(CCC(=O)[O-])Cc4cccs4)n3)cc2)CC1.[Na+] [Reference Compound C, reference compound]', 't'),
  ('CCc1ccc(CN(CCC(=O)[O-])c2nc([C@H]3CC[C@H](C(C)(C)C)CC3)cs2)s1.[Na+] [Example 8]', 'f'),
  ('Cc1ccc(CN(CCC(=O)[O-])c2nc(C3(C)CCC(C)CC3)cs2)s1.[Na+] (stereo not drawn) [Example 46]', 't');

Below: the item to evaluate.
Query: Quick check: does O=C([O-])CCN(Cc1cccs1)c1nc(-c2ccc(-c3ccccc3)cc2)cs1.[Na+] [Reference Compound B, reference compound] have concentration at 2 h under 4000 ng/mL?
Reply: t

* * *

assay: Stability in Liver Microsomes (monkey); assay type: in vitro ADME; details: 1 μM, 0.5 mg protein/mL, NADPH, 60 minutes, 37° C., pH 7.4
Stability in Liver Microsomes (% remaining after 1 hour incubation) Monkey for assorted molecules
Just the number please, in %, no unit attached.

Here is how some molecules turned out for Stability in Liver Microsomes (% remaining after 1 hour incubation) Monkey.
INSERT INTO results (molecule, display_unit, obs_value) VALUES
  ('COC1CCC(c2csc(N(CCC(=O)O)Cc3ccc(C)s3)n2)CC1 (stereo not shown)', '%', 88),
  ('Cc1cc(CN(CCC(=O)[O-])c2nc(C3CCC(c4ccccc4)CC3)cs2)c(C)s1.[Na+] (stereo not shown)', '%', 85),
  ('O=C([O-])CCN(Cc1cccs1)c1nc(C2CCC(c3ccccc3)CC2)cs1.[Na+] (stereo not shown) [Reference Compound E, reference compound]', '%', 38),
  ('CC(C)(C)[C@H]1CC[C@H](c2csc(N(CCC(=O)O)Cc3cccs3)n2)CC1 [Reference Compound D, reference compound]', '%', 76);

Query: What does the data say about its Stability in Liver Microsomes (% remaining after 1 hour incubation) Monkey? Entry: Cc1ccc(CN(CCC(=O)[O-])c2nc([C@H]3CC[C@H](C(C)C)CC3)cs2)s1.[Na+]
Reply: 74

Query: What does the data say about its Stability in Liver Microsomes (% remaining after 1 hour incubation) Monkey? Entry: CCc1ccc(CN(CCC(=O)[O-])c2nc(-c3ccc(N4CCCC4)cc3)cs2)s1.[Na+] [Reference Compound F, reference compound]
Reply: 5

Query: What does the data say about its Stability in Liver Microsomes (% remaining after 1 hour incubation) Monkey? Entry: CCc1ccc(CN(CCC(=O)[O-])c2nc([C@H]3CC[C@H](C(C)(C)C)CC3)cs2)s1.[Na+]
Reply: 84

* * *

assay: Stability in Liver Microsomes (monkey); format: in vitro ADME; conditions: 1 μM, 0.5 mg protein/mL, NADPH, 60 minutes, 37° C., pH 7.4
Stability in Liver Microsomes (% remaining after 1 hour incubation) Monkey for assorted compounds
Just the number please, in %, no unit attached.

Here is how some compounds turned out for Stability in Liver Microsomes (% remaining after 1 hour incubation) Monkey.
INSERT INTO results (compound, obs_value) VALUES
  ('CCC1CCC(c2csc(N(CCC(=O)O)Cc3ccc(C)s3)n2)CC1 (stereo not shown) [Example 19]', 60),
  ('Cc1ccc(CN(CCC(=O)[O-])c2nc(C3CCC(C4CCCCC4)CC3)cs2)s1.[Na+] (stereo not shown) [Example 60]', 83);

Query: What does the data say about its Stability in Liver Microsomes (% remaining after 1 hour incubation) Monkey? Entry: Cc1ccc(CN(CCC(=O)O)c2nc(C3CCC(C)(C)CC3)cs2)s1 [Example 55]
Reply: 78

Query: What does the data say about its Stability in Liver Microsomes (% remaining after 1 hour incubation) Monkey? Entry: CC(C)c1ccc(-c2csc(N(CCC(=O)[O-])Cc3cccs3)n2)cc1.[Na+] [Reference Compound A, reference compound]
Reply: 2
